src = paper PMC9409168

# Tested On: cathepsin L (Homo sapiens, UniProt P07711)
# Construct: made in house; host or cells: E. coli
# Sequence (P07711 114-333): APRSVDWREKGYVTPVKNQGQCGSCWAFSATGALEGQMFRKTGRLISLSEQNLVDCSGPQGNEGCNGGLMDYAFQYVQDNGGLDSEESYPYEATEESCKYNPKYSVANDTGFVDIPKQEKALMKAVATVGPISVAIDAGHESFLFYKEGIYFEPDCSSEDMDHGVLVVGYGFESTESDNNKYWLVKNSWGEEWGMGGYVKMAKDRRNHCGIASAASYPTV
# Assay Method Text: Kinetics of cathepsin L inhibition by metal ions, fluorogenic substrate Z-Leu-Arg-AMC
# Format: biochemical
# Assay Context: read-out: KX
Measured Endpoint: Ki (nM)

• O=[N+]([O-])[O-].O=[N+]([O-])[O-].O=[N+]([O-])[O-].[Ga+3] = 600

###

# Tested On: cathepsin S (Homo sapiens)
# Construct: made in house; host or cells: E. coli
# Sequence (P25774 115-331): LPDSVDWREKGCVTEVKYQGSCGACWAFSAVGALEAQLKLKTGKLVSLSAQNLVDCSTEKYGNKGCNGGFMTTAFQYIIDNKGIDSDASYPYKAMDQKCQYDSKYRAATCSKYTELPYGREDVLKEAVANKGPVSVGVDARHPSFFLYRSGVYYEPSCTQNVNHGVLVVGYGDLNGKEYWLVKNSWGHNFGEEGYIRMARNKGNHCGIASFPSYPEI
# Assay Method Text: Kinetics of cathepsin S inhibition by metal ions, fluorogenic substrate Z-Val-Val-Arg-AMC
# Format: biochemical
# Assay Context: read-out: KX
Measured Endpoint: Ki

* O=[N+]([O-])[O-].O=[N+]([O-])[O-].O=[N+]([O-])[O-].[Ga+3] | ~4 µM
